Biological target: T1, orthogonal hCD122 receptor (hoRb), hCD122 with H133D and Y134F (human, UniProt P14784 27-550)
T1 sequence: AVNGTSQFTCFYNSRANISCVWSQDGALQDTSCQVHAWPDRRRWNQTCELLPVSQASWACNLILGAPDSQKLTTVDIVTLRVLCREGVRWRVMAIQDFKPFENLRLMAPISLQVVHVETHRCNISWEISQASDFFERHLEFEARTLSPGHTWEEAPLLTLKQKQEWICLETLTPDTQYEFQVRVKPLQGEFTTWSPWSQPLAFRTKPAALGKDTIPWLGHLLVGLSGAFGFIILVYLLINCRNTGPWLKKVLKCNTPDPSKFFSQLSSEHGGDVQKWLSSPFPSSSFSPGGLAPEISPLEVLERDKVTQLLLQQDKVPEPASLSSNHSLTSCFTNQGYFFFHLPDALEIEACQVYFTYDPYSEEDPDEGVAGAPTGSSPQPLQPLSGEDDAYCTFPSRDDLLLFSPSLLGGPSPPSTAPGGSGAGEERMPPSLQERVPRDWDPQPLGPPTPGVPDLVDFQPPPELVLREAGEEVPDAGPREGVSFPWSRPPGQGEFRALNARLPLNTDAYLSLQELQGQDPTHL
Experiment: cell-based or functional assay
Assign NKL Ortho Proliferation Signal 1:2 to each entry below.
Answers are plain numbers.

Some entries whose results are on file:
binder="R81D, SQVLKA (ligand) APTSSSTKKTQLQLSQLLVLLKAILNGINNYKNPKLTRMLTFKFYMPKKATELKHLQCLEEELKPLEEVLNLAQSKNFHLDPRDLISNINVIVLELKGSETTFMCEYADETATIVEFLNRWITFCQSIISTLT" assay_result=71800
binder="T113N, SQVLKA (ligand) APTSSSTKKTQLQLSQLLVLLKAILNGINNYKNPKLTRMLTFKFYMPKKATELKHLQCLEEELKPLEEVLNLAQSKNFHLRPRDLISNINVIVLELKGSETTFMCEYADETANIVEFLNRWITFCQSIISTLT" assay_result=47400
binder="SQILKA (ligand) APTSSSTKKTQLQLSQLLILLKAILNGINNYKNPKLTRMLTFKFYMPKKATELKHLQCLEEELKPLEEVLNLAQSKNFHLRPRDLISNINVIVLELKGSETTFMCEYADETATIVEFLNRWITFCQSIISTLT" assay_result=55300
binder="SQVLKS (ligand) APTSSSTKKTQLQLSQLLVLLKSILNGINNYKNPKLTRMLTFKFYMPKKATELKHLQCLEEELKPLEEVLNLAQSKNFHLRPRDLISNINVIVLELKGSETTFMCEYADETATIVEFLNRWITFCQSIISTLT" assay_result=56200
binder="ΔT7, SQVLKA (ligand) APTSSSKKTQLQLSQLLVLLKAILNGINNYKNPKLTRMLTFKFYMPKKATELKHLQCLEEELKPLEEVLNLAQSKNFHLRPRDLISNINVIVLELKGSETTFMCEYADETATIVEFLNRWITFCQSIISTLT" assay_result=55400
binder="SQVLKF (ligand) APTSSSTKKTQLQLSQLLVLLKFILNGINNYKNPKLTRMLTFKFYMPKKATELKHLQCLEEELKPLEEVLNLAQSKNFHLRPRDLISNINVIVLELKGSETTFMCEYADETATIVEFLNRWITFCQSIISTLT" assay_result=65100

Now consider the entry below.
Exercise: Any idea what its NKL Ortho Proliferation Signal 1:2 is? The binder is ΔG27, SQVLKA (ligand) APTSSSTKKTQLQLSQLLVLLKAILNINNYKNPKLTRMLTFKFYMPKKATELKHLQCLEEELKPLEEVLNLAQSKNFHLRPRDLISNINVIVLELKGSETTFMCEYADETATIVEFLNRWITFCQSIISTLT
Key: 46600
